The reported measurements were obtained from the Immune Epitope Database (IEDB).

# Assayed System: HLA-B*40:01
# Test Name: IEDB peptide-MHC binding, purified MHC/direct/fluorescence; filed as Kd, often an IC50 or EC50 that approximates it; bounds were set here for any values at or beyond the usual limits of such assays
# Condition Notes: source organism: Vibrio parahaemolyticus

>  <Input Sequence>
ILRPLGIEY

>  <Kd>
≥ 20 µM

$$$$

###

# Assayed System: HLA-A*02:12
# Test Name: IEDB peptide-MHC binding, purified MHC/direct/fluorescence; filed as Kd, often an IC50 or EC50 that approximates it; bounds were set here for any values at or beyond the usual limits of such assays
# Condition Notes: source organism: Encephalitozoon cuniculi GB-M1
pKd: −log10 of the molar value.
Readings of pKd for the listed sequences

>  <Input Sequence>
HPYVFCALL

>  <Assayed System>
HLA-A*02:12

>  <pKd>
≤ 4.70

$$$$
>  <Input Sequence>
SPLPITLKY

>  <Assayed System>
HLA-A*02:12

>  <pKd>
≤ 4.70

$$$$
>  <Input Sequence>
EAYCALLCK

>  <Assayed System>
HLA-A*02:12

>  <pKd>
≤ 4.70

$$$$
